study-system: Prostaglandin G/H synthase 1 (Ovis aries, UniProt P05979)
Sequence (P05979 whole entry): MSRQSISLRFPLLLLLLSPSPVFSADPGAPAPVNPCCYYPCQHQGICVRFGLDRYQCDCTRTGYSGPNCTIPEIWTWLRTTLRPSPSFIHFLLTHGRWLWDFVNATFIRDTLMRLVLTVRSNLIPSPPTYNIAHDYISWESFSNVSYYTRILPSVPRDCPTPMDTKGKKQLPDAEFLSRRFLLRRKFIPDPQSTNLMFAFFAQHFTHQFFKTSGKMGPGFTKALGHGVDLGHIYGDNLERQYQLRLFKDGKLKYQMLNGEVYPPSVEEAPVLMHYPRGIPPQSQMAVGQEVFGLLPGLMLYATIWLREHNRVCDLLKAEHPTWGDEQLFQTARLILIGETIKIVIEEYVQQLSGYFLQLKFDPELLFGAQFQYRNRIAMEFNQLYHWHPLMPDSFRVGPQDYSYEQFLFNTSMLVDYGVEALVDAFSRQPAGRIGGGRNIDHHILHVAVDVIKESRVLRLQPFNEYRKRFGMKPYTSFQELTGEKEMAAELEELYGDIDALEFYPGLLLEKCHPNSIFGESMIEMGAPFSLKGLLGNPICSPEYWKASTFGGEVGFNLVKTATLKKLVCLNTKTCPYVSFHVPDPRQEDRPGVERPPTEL
pIC50: −log10 of the molar value.
endpoint-label: pIC50

1) Cc1cccnc1C#Cc1ccc(S(N)(=O)=O)cc1
5.89
2) CS(=O)(=O)c1ccccc1C#Cc1ccncc1
6.59
